test system: Erysiphe graminis f. sp. tritici; assay: Test L: wheat powdery mildew, preventive spray on wheat seedlings; details: 40 ppm (*)
Marks after values point to notes of the source that are not given here.
Listed below: Test L disease control rating values for each entry.

INSERT INTO measurements (compound, measure_name, endpoint_value) VALUES
  ('CSCC(C)n1c(-c2c(F)cccc2F)c(Cl)nc(-n2cccn2)c1=O (centres unmarked) [compound 198]', 'Test L disease control rating', '0* %'),
  ('CC(C)Cn1c(-c2c(Cl)ccc(Cl)c2Cl)c(Cl)nc(-n2cncn2)c1=O [compound 120]', 'Test L disease control rating', '0* %');

In: Form: Entry = CC(C)Cn1c(-c2cccc(F)c2)c(Cl)nc(-n2cncn2)c1=O [compound 230] | System = Erysiphe graminis f. sp. tritici | Test L disease control rating = ____
Out: 0* %

###

In this section, each of the molecules is paired with its reported Test K disease control rating.
test system: Puccinia recondita f. sp. tritici; test: Test K: wheat leaf rust, preventive spray on wheat seedlings; details: 200 ppm
Provide the reading as a plain figure in %.

INSERT INTO assay_data (molecule, assay_target, endpoint_value) VALUES
  ('CC(c1ccccc1)n1c(-c2c(F)cccc2F)c(Cl)nc(-n2cncn2)c1=O (stereo not drawn) [compound 108]', 'Puccinia recondita f. sp. tritici', 0),
  ('CC(C)Cn1c(-c2c(F)cccc2F)c(Cl)nc(NN=C2CCCC2)c1=O [compound 73]', 'Puccinia recondita f. sp. tritici', 80),
  ('CC(C)Cn1c(-c2ccc(Cl)cc2F)c(Cl)nc(-n2cccn2)c1=O [compound 45]', 'Puccinia recondita f. sp. tritici', 100),
  ('COc1nc(-n2cccn2)c(=O)n(C2CCCCC2)c1-c1c(F)cccc1F [compound 49]', 'Puccinia recondita f. sp. tritici', 0),
  ('O=c1c(-n2cccn2)nc(Cl)c(-c2c(F)cccc2F)n1C1CCCCC1 [compound 47]', 'Puccinia recondita f. sp. tritici', 95);

In: State the recorded Test K disease control rating for this entry: CC(C)Cn1c(-c2c(F)cc(F)cc2F)c(Cl)nc(-n2cccn2)c1=O [compound 7]
Out: 100

In: Test K disease control rating for CC(C)Cn1c(-c2ccc3ccccc3c2)c(Cl)nc(-n2cccn2)c1=O [compound 90] ?
Out: 0

In: What Test K disease control rating value was documented for this molecule, CC(C)Cn1c(-c2cc(F)ccc2F)c(Cl)nc(-n2cncn2)c1=O [compound 54] ?
Out: 98

In: Which Test K disease control rating value is on record for O=c1c(-n2cccn2)nc(Cl)c(-c2c(F)cccc2F)n1CC1CCCCC1 [compound 31] ?
Out: 88

###

We begin with a simple list: items and their reported Test E disease control rating.
system: Botrytis cinerea; assay: Test E: tomato botrytis, preventive spray on tomato seedlings; settings: 40 ppm (marked *); 100 = 100% disease control, 0 = no control
Marks after values point to notes of the source that are not given here.

Check out these entries, answers already filled in.
INSERT INTO measurements (compound, endpoint_value) VALUES
  ('CCCCn1c(-c2ccc(F)cc2Cl)c(Br)nc(-n2cccn2)c1=O [compound 284]', '94* %'),
  ('CC(C)Cn1c(-c2c(Cl)cc(C(F)(F)F)cc2Cl)c(Cl)nc(-n2cccn2)c1=O [compound 391]', '0* %'),
  ('Cc1ccn(-c2nc(Cl)c(-c3c(F)cccc3F)n(-c3ccccc3)c2=O)n1 [compound 278]', '100* %'),
  ('Nn1c(-c2c(F)cccc2F)c(Cl)nc(-n2cccn2)c1=O [Compound 400]', '0* %'),
  ('O=c1c(-n2cccn2)nc(Cl)c(-c2c(F)cc(F)cc2F)n1-c1cc(F)cc(F)c1 [compound 367]', '99* %');

In: Reported Test E disease control rating, compound CCC(C)Cn1c(-c2c(F)cc(F)cc2F)c(Cl)nc(C(N)=O)c1=O (stereo not drawn) [compound 415] : ____
Out: 99* %

In: Quick one: Test E disease control rating for COc1ccc(-n2c(-c3c(F)cccc3F)c(Cl)nc(-n3cccn3)c2=O)cc1 [compound 395] ?
Out: 80* %

In: Quick one: Test E disease control rating for O=c1c(-n2cccn2)nc(Cl)c(-c2c(F)cc(F)cc2F)n1-c1ccc(F)c(F)c1 [compound 365] ?
Out: 98* %

In: // lookup Test E disease control rating for COCCn1c(-c2c(F)cccc2F)c(Cl)nc(-n2ccc(C)n2)c1=O [compound 310]
Out: 0* %

In: Value lookup for Test E disease control rating; key = Cc1ccn(-c2nc(Cl)c(-c3c(F)cc(F)cc3F)n(-c3cccc(F)c3)c2=O)n1 [compound 356]
Out: 100* %

In: Quick check: Test E disease control rating of CCCn1c(-c2c(F)cc(F)cc2F)c(Cl)nc(C(N)=O)c1=O [compound 413] ?
Out: 99* %

In: Report Test E disease control rating for COc1ccccc1-n1c(-c2c(F)cccc2F)c(Cl)nc(-n2cccn2)c1=O [compound 393] please.
Out: 29* %

In: # Test E disease control rating lookup, item CCCCn1c(-c2ccc(F)cc2Cl)c(Cl)nc(-n2cccn2)c1=O [compound 266]
Out: 100* %

In: Find the recorded Test E disease control rating belonging to Cc1ccn(-c2nc(Cl)c(-c3c(F)cc(F)cc3F)n(-c3cccc(Cl)c3)c2=O)n1 [compound 374] and report it.
Out: 99* %

In: Value lookup for Test E disease control rating; key = Cc1ccccc1-n1c(-c2c(F)cccc2F)c(Cl)nc(-n2cccn2)c1=O [compound 328]
Out: 99* %

In: Consider the compound shown here: O=c1c(-n2cccn2)nc(Cl)c(-c2c(F)cc(F)cc2F)n1-c1ccc(Cl)cc1 [compound 371] What is its recorded Test E disease control rating?
Out: 99* %

In: Requested read-out: Test E disease control rating. Entry: CC(C)Cn1c(-c2cccc(C#N)c2)c(Cl)nc(-n2cccn2)c1=O [compound 250]
Out: 0* %

###

test system: Puccinia recondita f. sp. tritici; experiment: Test K: wheat leaf rust, preventive spray on wheat seedlings; settings: 40 ppm (*)
Marks after values point to notes of the source that are not given here.
Listed here: items and their measured Test K disease control rating.

INSERT INTO results (compound, endpoint_value) VALUES
  ('CC(C)Cn1c(C(C)c2ccccc2)c(Cl)nc(-n2cccn2)c1=O (stereo not drawn)', '0* %'),
  ('CC(C)Cn1c(-c2ccccc2)c(Cl)nc(-n2cccn2)c1=O', '0* %'),
  ('CC(C)Cn1c(-c2ccoc2)c(Cl)nc(-n2cccn2)c1=O', '0* %'),
  ('CCC(C)Cn1c(-c2c(F)cccc2F)c(Cl)nc(-n2cccc2)c1=O (stereo not drawn)', '68* %'),
  ('CC(C)Cn1c(-c2c(Cl)ccc(Cl)c2Cl)c(Cl)nc(-n2cncn2)c1=O', '55* %'),
  ('CC(C)Cn1c(-c2cccnc2)c(Cl)nc(-n2cccn2)c1=O', '0* %');

In: Item "CC(C)Cn1c(-c2ccc(C(C)(C)C)cc2)c(Cl)nc(-n2cncn2)c1=O" has what recorded Test K disease control rating?
Out: 0* %

In: Request the reported Test K disease control rating associated with CCC(C)Cn1c(-c2ccc(F)cc2Cl)c(Cl)nc(-n2cc(C)cn2)c1=O (stereo not drawn)
Out: 92* %

In: Form field: reported Test K disease control rating of "CC(C)Cn1c(-c2cccc3ccccc23)c(Cl)nc(-n2cccn2)c1=O"
Out: 0* %

In: State the recorded Test K disease control rating for this entry: CCC(C)Cn1c(-c2ccc(F)cc2Cl)c(Cl)nc(-n2cc(Cl)cn2)c1=O (stereo not drawn)
Out: 86* %

###

Entries and their Test E disease control rating
tested on: Botrytis cinerea; test: Test E: tomato botrytis, preventive spray on tomato seedlings; details: 40 ppm (marked *); 100 = 100% disease control, 0 = no control
Marks after values point to notes of the source that are not given here.

Some compounds with known Test E disease control rating results, for comparison:
INSERT INTO measurements (compound, endpoint_value) VALUES
  ('Cc1cccc(-n2c(-c3c(F)cccc3F)c(Cl)nc(-n3cccn3)c2=O)c1C [compound 378]', '98* %'),
  ('O=c1c(-n2cccn2)nc(Cl)c(-c2c(F)cc(F)cc2F)n1-c1cccc(C(F)(F)F)c1 [compound 353]', '98* %'),
  ('Cc1ccn(-c2nc(Cl)c(-c3c(F)cccc3F)n(-c3ccc(F)c(F)c3)c2=O)n1 [compound 389]', '99* %'),
  ('O=c1c(-n2cccn2)nc(Cl)c(-c2c(F)cccc2F)n1C1CCC1 [compound 363]', '99* %'),
  ('O=c1c(-n2cccn2)nc(Cl)c(-c2c(F)cc(F)cc2F)n1-c1ccc(Cl)c(Cl)c1 [compound 402]', '99* %'),
  ('O=c1c(-n2cccn2)nc(Cl)c(-c2c(F)cc(F)cc2F)n1Cc1cccc(C(F)(F)F)c1 [compound 347]', '0* %'),
  ('CCC(C)Cn1c(-c2c(F)cccc2F)c(Cl)nc(C(=O)NCCO)c1=O (centres unmarked) [compound 349]', '0* %');

API: the following record is the query input.
In: Missing value: Test E disease control rating, Botrytis cinerea, entry O=c1c(-n2cccn2)nc(Cl)c(-c2c(F)cc(F)cc2F)n1Cc1ccc(Br)cc1 [compound 377] . Fill in?
Out: 99* %
